Recorded intrinsic clearance, rat liver microsomes by entry
readout.kind: intrinsic clearance, rat liver microsomes (mL/min/kg)

{"compound": "Cc1nc(C2CCNCC2)cc(N(C)C)n1", "relation.sign": "≤", "result.value": 10.7}
{"compound": "Cc1cccc(NC(=O)CN(C)Cc2nc3ccccc3c(=O)[nH]2)c1C", "relation.sign": "=", "result.value": 571}
{"compound": "Cc1c[nH]c(C(=O)NCC2(N3CCCCC3)CCCC2)n1", "relation.sign": "=", "result.value": 191}
{"compound": "O=C(NCCc1ccccc1)c1cnccn1", "relation.sign": "=", "result.value": 29}
{"compound": "CCc1nc(C)c(Cn2ccnc2-c2cnc(N3CCCC3)nc2)s1", "relation.sign": "=", "result.value": 548}
{"compound": "O=C(O)c1c2ccccc2nn1Cc1ccccc1", "relation.sign": "≤", "result.value": 10.7}
{"compound": "c1ccc(-c2ccc(CN3CCCCCCC3)cc2)cc1", "relation.sign": "=", "result.value": 1530}
{"compound": "Nc1ccc(Oc2ccccc2F)nc1", "relation.sign": "=", "result.value": 26.2}
{"compound": "O=C(NCCc1cnn(-c2ccccc2)c1)N1CCC1", "relation.sign": "=", "result.value": 54.8}
{"compound": "CNC(=O)c1ccc(Nc2ncc(C(F)(F)F)c(NCc3nccnc3N(C)S(C)(=O)=O)n2)cc1", "relation.sign": "=", "result.value": 141}
{"compound": "CC(=O)N1CCN(c2c(Cl)cccc2NC(=O)COc2ccc(C(C)C)cc2)CC1", "relation.sign": "=", "result.value": 1990}
{"compound": "CN(C)c1ccc(-c2ccc(COCc3cccs3)cc2)nn1", "relation.sign": "=", "result.value": 410}
{"compound": "COc1ccccc1-n1ncc2c(=O)[nH]c(SC(C)c3ccccc3)nc21 (stereo not drawn)", "relation.sign": "=", "result.value": 1180}
{"compound": "C[C@@]12CCCN1C(=O)[C@H](C1CCCCC1)NC2=O", "relation.sign": "=", "result.value": 20.8}
{"compound": "O=[N+]([O-])c1ccc(S(=O)(=O)Nc2cccc(-c3nc4ccccc4s3)c2)cc1", "relation.sign": "=", "result.value": 512}
{"compound": "COc1ccc(C)cc1-n1ccc(C(=O)NC(C)C)n1", "relation.sign": "=", "result.value": 334}
{"compound": "Cc1cnccc1NC(=O)COc1ccccc1C#N", "relation.sign": "=", "result.value": 302}
{"compound": "CN(C)CC(=O)N1CCC(c2ccc(NC(=O)c3nc(C#N)c[nH]3)c(C3=CCCCC3)c2)CC1", "relation.sign": "=", "result.value": 56.3}
{"compound": "Cc1cnn(CC(=O)NCCCn2cc(Cl)cn2)c1", "relation.sign": "=", "result.value": 47.2}
{"compound": "CN(CCNC(=O)NC1CCOCC1)C1CCCC1", "relation.sign": "=", "result.value": 184}
{"compound": "Cc1ccccc1S(=O)(=O)N[C@@H]1CC[C@@H](O)[C@@H]1O", "relation.sign": "=", "result.value": 17.7}
{"compound": "CCOCC(=O)Nc1cccc(CN2CCCC2)c1", "relation.sign": "=", "result.value": 501}
{"compound": "CCn1nccc1-c1cc(C)nc(N2CCCC2)n1", "relation.sign": "=", "result.value": 398}
{"compound": "CC(C)c1cnc(COc2ccc(Br)nc2)o1", "relation.sign": "=", "result.value": 983}
{"compound": "CC(=O)N1CCC(Nc2ncnc3cc(-c4ccc(Br)cc4)sc23)CC1", "relation.sign": "=", "result.value": 43.2}
{"compound": "CC(C)(C)n1ncc(C(=O)N2CCCn3ncnc32)c1C(F)(F)F", "relation.sign": "=", "result.value": 375}
{"compound": "COc1ccccc1NC(=O)CN1CCCN(c2nc(C)cs2)CC1", "relation.sign": "=", "result.value": 1950}
{"compound": "COc1ccc(-c2nc3cc(C)ccc3cc2CN(C)Cc2nccn2C)cc1", "relation.sign": "=", "result.value": 2500}
{"compound": "CSc1nnc(CCCNc2cc(C)ccn2)n1C1CCCC1", "relation.sign": "=", "result.value": 3220}
{"compound": "COc1cc(OC)cc(-c2c(C)ncnc2OC)c1", "relation.sign": "=", "result.value": 107}
{"compound": "NC(CO)(CO)CCc1ccc(Sc2cccc(OCc3ccccc3)c2)cc1Cl", "relation.sign": "=", "result.value": 14.2}
{"compound": "CN(Cc1nnc(C2CC2)n1C)C(=O)C1C2CC3CC(C2)CC1C3 (stereo not drawn)", "relation.sign": "=", "result.value": 951}
{"compound": "CN(Cc1cccc(C#N)c1)Cc1ccccc1C#N", "relation.sign": "=", "result.value": 4220}
{"compound": "COCC(=O)Nc1ccc(NC(=O)Cc2ccc(C(F)(F)F)cc2)cc1", "relation.sign": "=", "result.value": 88.9}
{"compound": "N#Cc1ccccc1-c1ccc(-c2nccn2-c2cccnc2)o1", "relation.sign": "=", "result.value": 719}
{"compound": "CC(=O)N1c2ccc(S(=O)(=O)Nc3cccc(-c4cnco4)c3)cc2CC1C (stereo not drawn)", "relation.sign": "=", "result.value": 274}
{"compound": "CC(=O)c1c(C)c2cnc(Nc3ccc(N4CCNCC4)cn3)nc2n(C2CCCC2)c1=O", "relation.sign": "=", "result.value": 34.7}
{"compound": "Clc1ccc(NCc2ccoc2)nn1", "relation.sign": "≤", "result.value": 10.7}
{"compound": "CCOC(=O)c1c(C)n(C)c2ccc(O)cc12", "relation.sign": "=", "result.value": 166}
{"compound": "CS(=O)(=O)CCN1CCC(n2c(=O)[nH]c3ccccc32)CC1", "relation.sign": "≤", "result.value": 10.7}
{"compound": "Cn1nc(C2CCNCC2)c2cccnc21", "relation.sign": "=", "result.value": 36.3}
{"compound": "Cc1ccc2[nH]c(C3CCN(C)CC3)nc2c1", "relation.sign": "=", "result.value": 685}
{"compound": "O=C(Cn1cc(NCc2cccc(Cl)c2)cn1)N1CCOCC1", "relation.sign": "=", "result.value": 71.9}
{"compound": "CNC(=O)c1cccc(Oc2ncnc3c2CN(C)CC3)c1", "relation.sign": "≤", "result.value": 10.7}
{"compound": "C[C@H](C(=O)Nc1nc2ccccc2[nH]1)N1Cc2ccccc2C1=O", "relation.sign": "=", "result.value": 62.6}
{"compound": "C[C@@H](Cn1nc2c(cc1=O)CCCCC2)NC(=O)CCc1ccccc1", "relation.sign": "=", "result.value": 3560}
{"compound": "O=C(Nc1ccn(Cc2ccc(O)cc2C(F)(F)F)n1)c1c(F)cccc1F", "relation.sign": "=", "result.value": 438}
{"compound": "Cc1nc(NCc2ccc(F)cc2)n(C)n1", "relation.sign": "≤", "result.value": 10.7}

----------
param class (str): category from MDR1-MDCK efflux ratio; see ranges label 0 = under 0.7, label 1 = from 0.7 up to 3, label 2 = 3 and over

{"compound": "CC1(C)Cc2cc(NC(=O)c3cnn4cccnc34)c(N3CCN(CC(F)F)CC3)nc2O1", "group": "label 2"}
{"compound": "CCN1CCC(N(C)c2ncnc3c2cnn3C)CC1", "group": "label 1"}
{"compound": "Cc1cccc(N(C)C(=O)COC2CCCC2)n1", "group": "label 0"}
{"compound": "Cc1c[nH]c(=O)n1-c1ccc(C(=O)Nc2ccc3ccccc3n2)cc1", "group": "label 2"}
{"compound": "O=C(CC[C@@H]1CCCN2CCCC[C@H]12)NCc1ncc(Cl)cn1", "group": "label 2"}
{"compound": "Cc1nccn1-c1ccc(F)cc1CNC(=O)C(C)C", "group": "label 2"}
{"compound": "COc1ccc(OCc2nn3c(-c4ccc(OC)cc4)nnc3s2)cc1", "group": "label 0"}
{"compound": "Nc1ccc2[nH]c(CCc3ccccc3)nc2c1", "group": "label 1"}
{"compound": "Cc1nc(CC2CCN(S(=O)(=O)c3c(C)noc3C)CC2)cc(NC2CCCC2)n1", "group": "label 2"}
{"compound": "CC(C)(C)c1csc(NC(=O)C2CC2)n1", "group": "label 0"}
{"compound": "OCCN1CCN(c2ccnc3ccc(Br)cc23)CC1", "group": "label 1"}
{"compound": "CCNC(=O)c1ccc(CS(C)(=O)=O)cc1", "group": "label 1"}
{"compound": "CC(=O)N[C@H]1CC2(CCN(C(=O)COc3cc(C)c(Cl)c(C)c3)CC2)OC[C@]1(C)O", "group": "label 2"}
{"compound": "CN(C)C(=O)c1ccc(NC(=O)c2cccc(F)c2)cc1", "group": "label 1"}
{"compound": "O=C(O)c1cc(/N=N/c2ccc(S(=O)(=O)Nc3ccccn3)cc2)ccc1O", "group": "label 0"}
{"compound": "CC1(C)CN(C(=O)c2cncc(Br)c2)CCO1", "group": "label 1"}
{"compound": "Cc1cc(Nc2ccc(F)cn2)cc(C2CCN(C(=O)CCn3ncc4ccccc43)C2)n1 (configuration not stated)", "group": "label 2"}
{"compound": "COCCc1nc(CCCn2cccn2)n(C2Cc3ccccc3C2)n1", "group": "label 2"}
{"compound": "O=C(NCC1CCC1)c1ccc(-n2ccnc2)nn1", "group": "label 0"}
{"compound": "CC(C)N(C[C@@H]1O[C@@H](n2cnc3c(N)ncnc32)[C@H](O)[C@H]1O)[C@H]1C[C@@H](CCc2nc3cc(C(C)(C)C)ccc3[nH]2)C1", "group": "label 2"}
{"compound": "Cc1c(C(=O)NCc2cnc(N(C)C)n2C)sc2ccccc12", "group": "label 2"}
{"compound": "CC(C(O)c1ccc(O)cc1)N1CCC(Cc2ccccc2)CC1 (configuration not stated)", "group": "label 1"}
{"compound": "COc1ccc2ccccc2c1CNC(=O)c1cnc(C2CC2)nc1", "group": "label 0"}
{"compound": "O=C(Nc1ccccc1-n1ccnc1)c1cccs1", "group": "label 1"}
{"compound": "CN1CCN(Cc2noc(Cc3ccccc3)n2)c2ccccc21", "group": "label 0"}
{"compound": "CC1CCC(CNC2(CCO)CCOCC2)CC1 (configuration not stated)", "group": "label 1"}
{"compound": "CC(C)(C)C(=O)N1CCC(CN(CC(N)=O)C2CCCC2)CC1", "group": "label 2"}
{"compound": "Cc1cccc(-c2nc(CN(Cc3cnn(C)c3)C(C)C)c(C)o2)c1", "group": "label 1"}
{"compound": "Cc1nc(O)cc(C2CCN(c3cnccn3)CC2)n1", "group": "label 2"}
{"compound": "CC(=O)c1ccc2c(c1)CCN(CC1CCC3(CC1)OCCO3)CC2", "group": "label 0"}
{"compound": "Cc1nc(CN2C(=O)CN(C3CCCC3)C2=O)nc2ccccc12", "group": "label 1"}
{"compound": "NCC1CCCC1NC(=O)c1cc(N2CCNC2=O)ccc1F (configuration not stated)", "group": "label 1"}
{"compound": "COc1cc2c(cc1OC)[C@@H]1Cc3ccc(OC)c(OC)c3CN1CC2", "group": "label 0"}
{"compound": "CS(=O)(=O)NC1CCN(C(=O)NCCc2ccc(F)cc2)CC1", "group": "label 2"}
{"compound": "CCc1nnc2n1CCN(C(=O)c1ccccc1Oc1cccnc1)C2", "group": "label 2"}
{"compound": "CCOCCNC(=O)c1cccc(-c2cc(F)ccc2OC)c1", "group": "label 0"}
{"compound": "CN1C(=O)N(CC(=O)NCc2ccc(Cl)cc2)C(=O)C12CCCCC2", "group": "label 2"}
{"compound": "CN1CCN(c2ccc(NC(=O)c3ccccc3Cl)nc2)CC1", "group": "label 0"}
{"compound": "COc1ccc(-c2ccc(CN(CCN3CCOCC3)Cc3cccnc3)cc2)cc1", "group": "label 1"}
{"compound": "O=C(Cc1ccc2c(c1)OCCO2)NC1CCCCCC1", "group": "label 0"}
{"compound": "CCn1c(=O)n(CC)c2cc(N)ccc21", "group": "label 1"}
{"compound": "Cc1ccc(Oc2ccc(N)cc2)nn1", "group": "label 1"}
{"compound": "CCCNC(=O)CSc1nc2cc(C)ccc2[nH]1", "group": "label 1"}
